Molecular target: Pin1 (Homo sapiens)
Construct: endogenous in cells; host or cells: 293T cells
Sequence (Q13526 whole entry): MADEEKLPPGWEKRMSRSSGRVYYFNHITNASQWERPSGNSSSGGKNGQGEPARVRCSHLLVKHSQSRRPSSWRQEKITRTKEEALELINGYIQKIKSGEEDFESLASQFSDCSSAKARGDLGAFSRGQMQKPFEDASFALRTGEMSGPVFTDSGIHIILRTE
Assay: Cell-based evaluation of Pin1 inhibition activity with AMPK phosphorylation level as index (293T cells, Western blot)
Set-up: key: +++: a higher level of AMPK phosphorylation is promoted, as compared with C1; ++: a similar level of AMPK phosphorylation is promoted, as compared with C1; +: a lower level of AMPK phosphorylation is promoted, as compared with C1; −: no or almost no promotion is found in AMPK phosphorylation
Conditions: compound at 100 μM, 30 minutes, then 10 mM 2-DG for one hour, pAMPK level compared with C1
measured-endpoint: Pin1 inhibition activity

Recorded Pin1 inhibition activity, per entry:
INSERT INTO assay_data (molecule, target, result) VALUES
  ('O=C(Nc1ccc(OCc2ccc3ccccc3c2)cc1C(=O)O)c1ccc2ccccc2c1', 'Pin1 (Homo sapiens)', '+'),
  ('Nc1ccc(OCc2ccc3ccccc3c2)cc1C(=O)O', 'Pin1 (Homo sapiens)', '+'),
  ('COC(=O)c1cc(OCc2ccc3ccccc3c2)ccc1NC(C)=O', 'Pin1 (Homo sapiens)', '++'),
  ('O=C(O)c1cc(OCc2ccc3ccccc3c2)ccc1NS(=O)(=O)c1ccc2ccccc2c1', 'Pin1 (Homo sapiens)', '+');

Task: Given the molecule O=C(Nc1ccc(OCc2ccccc2)cc1C(=O)O)c1cccc(Oc2ccccc2)c1 , what is its reported Pin1 inhibition activity?
Output: +

Task: Try this molecule next: O=C(Nc1ccc(OCc2ccccc2)cc1C(=O)O)c1ccc2ccccc2c1
Output: +++

Task: What about this molecule? COC(=O)c1cc(OCc2ccccc2)ccc1NC(=O)c1ccc2ccccc2c1
Output: +

Task: Next molecule up: CC(=O)Nc1ccc(OCc2ccccc2)cc1C(=O)O [Compound H-296, reference compound]
Output: −

Task: Repeat for the following molecule: O=C(O)c1cc(OCc2ccccc2)ccc1NS(=O)(=O)c1ccc2ccccc2c1
Output: +

Task: Okay, and O=C(O)c1cc(OCc2ccccc2)ccc1NC(=O)c1cccc2ccccc12 ?
Output: +

Task: Next entry: CC(=O)Nc1ccc(OCc2ccc3ccccc3c2)cc1C(=O)O
Output: +++

Task: # repeat for O=C(Nc1ccc(OCc2ccccc2)cc1C(=O)O)c1ccc2ccccc2n1
Output: +

Task: Okay, and O=C(COc1ccc2ccccc2c1)Nc1ccc(OCc2ccccc2)cc1C(=O)O ?
Output: +

Task: Another molecule to look at: COC(=O)c1cc(OCc2ccc3ccccc3c2)ccc1N
Output: +++
